# measured target: mouse TMEM16A mutant P595A (Mus musculus, UniProt Q8BHY3, P595A)
# Construct: expressed in transfected cells; host or cells: HEK293T
# assay details: Inside-out patch recording of 1PBC block, mutant P595A
# Format: cell-based
# experimental setup: -140 mV; 2 µM Ca2+
value type: IC50 (µM)
Give the value, in units of µM, as a plain number.

Query string: What measured IC50 goes with N#Cc1c(C(F)(F)F)cc(O)n2c1nc1ccccc12 [1PBC] ?
Result string: 10.5

* * *

# measured target: mouse TMEM16A mutant I636A (Mus musculus, UniProt Q8BHY3, I636A)
# Construct: expressed in transfected cells; host or cells: HEK293T
# assay details: Inside-out patch recording of 1PBC block, mutant I636A
# Type: cell-based
# experimental setup: I636A; V -100 mV
value type: pIC50
pIC50 (log units): -log10 of the concentration in mol/L.

Query string: What measured pIC50 goes with N#Cc1c(C(F)(F)F)cc(O)n2c1nc1ccccc12 [1PBC] ?
Result string: 4.72

* * *

# measured target: mouse TMEM16A mutant G510P (Mus musculus, UniProt Q8BHY3, G510P)
# Construct: expressed in transfected cells; host or cells: HEK293T
# assay details: Inside-out patch recording of 1PBC block, mutant G510P
# Assay type: cell-based
# experimental setup: G510P; V 0 mV
value type: pIC50
pIC50 (log units): -log10 of the concentration in mol/L.

Query string: What measured pIC50 goes with N#Cc1c(C(F)(F)F)cc(O)n2c1nc1ccccc12 ?
Result string: 4.18

* * *

# measured target: mouse TMEM16A mutant G510P (Mus musculus, UniProt Q8BHY3, G510P)
# Construct: expressed in transfected cells; host or cells: HEK293T
# assay details: Inside-out patch recording of 1PBC block, mutant G510P
# Type: cell-based
# experimental setup: -40 mV; 15 µM Ca2+
# Procedure: HEK293T cells (ATCC CRL-1573) were maintained in Dulbecco’s modified Eagle’s medium (DMEM; Sigma-Aldrich) supplemented with 10 U ml^−1 penicillin, 0.1 mg ml^−1 streptomycin (Sigma-Aldrich), 2 mM L-glutamine (Sigma-Aldrich), and 10% FBS (Sigma-Aldrich) in a humidified atmosphere containing 5% CO2 at 37 °C. […]
value type: pIC50
pIC50 (log units): -log10 of the concentration in mol/L.

Query string: What measured pIC50 goes with N#Cc1c(C(F)(F)F)cc(O)n2c1nc1ccccc12 [1PBC] ?
Result string: 4.12

* * *

# measured target: mouse TMEM16A mutant I636A (Mus musculus, UniProt Q8BHY3, I636A)
# Construct: expressed in transfected cells; host or cells: HEK293T
# assay details: Inside-out patch recording of 1PBC block, mutant I636A
# Assay type: cell-based
# experimental setup: I636A; V 80 mV
value type: IC50 (µM)
Give the value, in units of µM, as a plain number.

Query string: What measured IC50 goes with N#Cc1c(C(F)(F)F)cc(O)n2c1nc1ccccc12 ?
Result string: 3.83

* * *

# measured target: mouse TMEM16A mutant K603Q (Mus musculus, UniProt Q8BHY3, K603Q)
# Construct: expressed in transfected cells; host or cells: HEK293T
# assay details: Inside-out patch recording of 1PBC block, mutant K603Q
# Type: cell-based
# experimental setup: 100 mV; 4 µM Ca2+
value type: IC50 (µM)
Give the value, in units of µM, as a plain number.

Query string: What measured IC50 goes with N#Cc1c(C(F)(F)F)cc(O)n2c1nc1ccccc12 ?
Result string: 197

* * *

# measured target: mouse TMEM16A mutant T539A (Mus musculus, UniProt Q8BHY3, T539A)
# Construct: expressed in transfected cells; host or cells: HEK293T
# assay details: Inside-out patch recording of 1PBC block, mutant T539A
# Type: cell-based
# experimental setup: T539A; V 80 mV
value type: IC50 (µM)
Give the value, in units of µM, as a plain number.

Query string: What measured IC50 goes with N#Cc1c(C(F)(F)F)cc(O)n2c1nc1ccccc12 ?
Result string: 9.02

* * *

# measured target: mouse TMEM16A mutant I640A (Mus musculus, UniProt Q8BHY3, I640A)
# Construct: expressed in transfected cells; host or cells: HEK293T
# assay details: Inside-out patch recording of 1PBC block, mutant I640A
# Type: cell-based
# experimental setup: -140 mV; 15 µM Ca2+
value type: IC50 (µM)
Give the value, in units of µM, as a plain number.

Query string: What measured IC50 goes with N#Cc1c(C(F)(F)F)cc(O)n2c1nc1ccccc12 [1PBC] ?
Result string: 73.5

* * *

# measured target: mouse TMEM16A mutant T539A (Mus musculus, UniProt Q8BHY3, T539A)
# Construct: expressed in transfected cells; host or cells: HEK293T
# assay details: Inside-out patch recording of 1PBC block, mutant T539A
# Assay type: cell-based
# experimental setup: T539A; V -120 mV
value type: IC50 (µM)
Give the value, in units of µM, as a plain number.

Query string: Checklist item: IC50 tested on mouse TMEM16A mutant T539A (Mus musculus, UniProt Q8BHY3, T539A), entry N#Cc1c(C(F)(F)F)cc(O)n2c1nc1ccccc12 , value?
Result string: 38.6

* * *

# measured target: mouse TMEM16A mutant P595A (Mus musculus, UniProt Q8BHY3, P595A)
# Construct: expressed in transfected cells; host or cells: HEK293T
# assay details: Inside-out patch recording of 1PBC block, mutant P595A
# Assay type: cell-based
# experimental setup: P595A; V -80 mV
value type: pIC50
pIC50 (log units): -log10 of the concentration in mol/L.

Query string: What measured pIC50 goes with N#Cc1c(C(F)(F)F)cc(O)n2c1nc1ccccc12 [1PBC] ?
Result string: 5.15

* * *

# measured target: mouse TMEM16A mutant K603Q (Mus musculus, UniProt Q8BHY3, K603Q)
# Construct: expressed in transfected cells; host or cells: HEK293T
# assay details: Inside-out patch recording of 1PBC block, mutant K603Q
# Assay type: cell-based
# experimental setup: K603Q; V -60 mV
value type: IC50 (µM)
Give the value, in units of µM, as a plain number.

Query string: What measured IC50 goes with N#Cc1c(C(F)(F)F)cc(O)n2c1nc1ccccc12 [1PBC] ?
Result string: 193

* * *

# measured target: mouse TMEM16A mutant Y598A (Mus musculus, UniProt Q8BHY3, Y598A)
# Construct: expressed in transfected cells; host or cells: HEK293T
# assay details: Inside-out patch recording of 1PBC block, mutant Y598A
# Assay type: cell-based
# experimental setup: 40 mV; 2 µM Ca2+
value type: pIC50
pIC50 (log units): -log10 of the concentration in mol/L.

Query string: What measured pIC50 goes with N#Cc1c(C(F)(F)F)cc(O)n2c1nc1ccccc12 [1PBC] ?
Result string: 5.45

* * *

# measured target: mouse TMEM16A mutant N546A (Mus musculus, UniProt Q8BHY3, N546A)
# Construct: expressed in transfected cells; host or cells: HEK293T
# assay details: Inside-out patch recording of 1PBC block, mutant N546A
# Format: cell-based
# experimental setup: N546A; V 40 mV
# Procedure: HEK293T cells (ATCC CRL-1573) were maintained in Dulbecco’s modified Eagle’s medium (DMEM; Sigma-Aldrich) supplemented with 10 U ml^−1 penicillin, 0.1 mg ml^−1 streptomycin (Sigma-Aldrich), 2 mM L-glutamine (Sigma-Aldrich), and 10% FBS (Sigma-Aldrich) in a humidified atmosphere containing 5% CO2 at 37 °C. […]
value type: IC50 (nM)
Give the value, in units of nM, as a plain number.

Query string: What measured IC50 goes with N#Cc1c(C(F)(F)F)cc(O)n2c1nc1ccccc12 [1PBC] ?
Result string: 326

* * *

# measured target: mouse TMEM16A mutant S517A (Mus musculus, UniProt Q8BHY3, S517A)
# Construct: expressed in transfected cells; host or cells: HEK293T
# Sequence (Q8BHY3 1-960 S517A): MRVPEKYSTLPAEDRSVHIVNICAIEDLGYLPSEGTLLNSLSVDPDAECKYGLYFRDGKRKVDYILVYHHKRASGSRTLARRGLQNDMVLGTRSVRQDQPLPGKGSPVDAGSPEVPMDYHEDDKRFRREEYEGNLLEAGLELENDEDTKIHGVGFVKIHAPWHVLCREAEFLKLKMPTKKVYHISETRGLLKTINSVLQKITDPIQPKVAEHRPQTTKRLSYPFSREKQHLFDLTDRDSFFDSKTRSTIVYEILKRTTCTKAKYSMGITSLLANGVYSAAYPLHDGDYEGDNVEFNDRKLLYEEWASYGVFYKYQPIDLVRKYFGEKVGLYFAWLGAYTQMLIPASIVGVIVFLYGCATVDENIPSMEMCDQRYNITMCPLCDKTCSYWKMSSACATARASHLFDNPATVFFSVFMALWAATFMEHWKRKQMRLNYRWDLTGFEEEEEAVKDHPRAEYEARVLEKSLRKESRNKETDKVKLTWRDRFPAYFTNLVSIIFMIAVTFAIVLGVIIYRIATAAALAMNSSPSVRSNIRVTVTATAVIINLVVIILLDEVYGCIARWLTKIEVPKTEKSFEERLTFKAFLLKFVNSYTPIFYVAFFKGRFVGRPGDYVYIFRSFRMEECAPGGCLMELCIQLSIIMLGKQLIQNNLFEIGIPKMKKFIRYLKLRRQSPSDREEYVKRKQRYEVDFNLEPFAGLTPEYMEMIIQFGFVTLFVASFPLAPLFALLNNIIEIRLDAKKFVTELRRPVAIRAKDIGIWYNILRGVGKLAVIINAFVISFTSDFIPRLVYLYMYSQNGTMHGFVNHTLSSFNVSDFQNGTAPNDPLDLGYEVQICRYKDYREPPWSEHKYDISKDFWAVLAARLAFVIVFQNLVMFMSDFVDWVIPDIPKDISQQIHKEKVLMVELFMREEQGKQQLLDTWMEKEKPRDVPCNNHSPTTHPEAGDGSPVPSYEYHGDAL
# assay details: Inside-out patch recording of 1PBC block, mutant S517A
# Format: cell-based
# experimental setup: S517A; V -20 mV
value type: IC50 (µM)
Give the value, in units of µM, as a plain number.

Query string: What measured IC50 goes with N#Cc1c(C(F)(F)F)cc(O)n2c1nc1ccccc12 ?
Result string: 6.24

Hello, the source for this data is paper PMC9120017, in case you need it.
